assay: qHTS assay to identify small molecule antagonists of the estrogen related receptor (ERR) signaling pathway from Tox21 library - cell viability counter screen (AID 1224834); conditions: ERR reporter cells viability, CellTiter-Fluor, 17.5 h; series mostly up to 92.4 µM; also: nearly all actives have a fitted effect of over 30% in size
Results filed as inconclusive are left out. Activity calls are given as the source filed them. Calls follow the shape of the dose curve; as a rule, active = well fitted cell-killing curve with a large enough effect in the repeat runs; inconclusive = weak or mixed curves; inactive = flat fitted curve, though single readings scatter.
Outcomes: active, inactive

>  <COMPOUND>
O=C(O)CCC(=O)c1ccc(-c2ccccc2)cc1

>  <GROUP LABEL>
inactive

$$$$
>  <COMPOUND>
CCCCCCCCCCCC(=O)OCC(O)CO (stereo not drawn)

>  <GROUP LABEL>
inactive

$$$$
>  <COMPOUND>
CCCCCCC(O)CCOC(C)=O (stereo not drawn)

>  <GROUP LABEL>
inactive

$$$$
>  <COMPOUND>
CNc1c2c(nn1C)CCCC2

>  <GROUP LABEL>
inactive

$$$$
>  <COMPOUND>
CCN(CC)c1cccc(O)c1

>  <GROUP LABEL>
inactive

$$$$
>  <COMPOUND>
O=C(c1ccccc1)C1CCC1

>  <GROUP LABEL>
inactive

$$$$
>  <COMPOUND>
CCN(CC)CCOC(=O)C(c1ccccc1)c1ccccc1

>  <GROUP LABEL>
inactive

$$$$
>  <COMPOUND>
CCOCCC(=O)OCC

>  <GROUP LABEL>
inactive

$$$$
>  <COMPOUND>
CCN(CC)C(=O)/C(C#N)=C/c1cc(O)c(O)c([N+](=O)[O-])c1

>  <GROUP LABEL>
active

$$$$
>  <COMPOUND>
CCCCOC(=O)CCCCC(=O)OCCCC

>  <GROUP LABEL>
inactive

$$$$
>  <COMPOUND>
SCCc1cnccn1

>  <GROUP LABEL>
inactive

$$$$
>  <COMPOUND>
CCC(C)(C)C(=O)O

>  <GROUP LABEL>
inactive

$$$$
>  <COMPOUND>
Cc1oc(=O)oc1COC(=O)[C@@H]1N2C(=O)[C@@H](NC(=O)[C@H](N)c3ccccc3)[C@H]2SC1(C)C

>  <GROUP LABEL>
inactive

$$$$
>  <COMPOUND>
O=C(NS(=O)(=O)/C=C/c1ccccc1)c1ccc(F)cc1Cl

>  <GROUP LABEL>
inactive

$$$$
>  <COMPOUND>
Cc1ccc2c(c1)CCCN2

>  <GROUP LABEL>
inactive

$$$$
>  <COMPOUND>
CC(C)(O)CCc1ccccc1

>  <GROUP LABEL>
inactive

$$$$
>  <COMPOUND>
C[C@@H]1C[C@H]2[C@@H]3CCC4=CC(=O)C=C[C@]4(C)[C@@]3(F)[C@@H](O)C[C@]2(C)[C@@]1(O)C(=O)COP(=O)(O)O

>  <GROUP LABEL>
inactive

$$$$
>  <COMPOUND>
Cc1ccc2nc(N)[nH]c(=O)c2c1Sc1ccncc1

>  <GROUP LABEL>
inactive

$$$$
>  <COMPOUND>
O=C(O)CCC(=O)OC[C@@H](NC(=O)C(Cl)Cl)[C@H](O)c1ccc([N+](=O)[O-])cc1

>  <GROUP LABEL>
inactive

$$$$
>  <COMPOUND>
CC[C@H]1OC(=O)[C@H](C)[C@@H](O[C@H]2C[C@@](C)(OC)[C@@H](O)[C@H](C)O2)[C@H](C)[C@@H](O[C@@H]2O[C@H](C)C[C@H](N(C)C)[C@H]2O)[C@](C)(O)C[C@@H](C)CN(C)[C@H](C)[C@@H](O)[C@]1(C)O

>  <GROUP LABEL>
inactive

$$$$
>  <COMPOUND>
Cc1cn([C@H]2C[C@H](F)[C@@H](CO)O2)c(=O)[nH]c1=O

>  <GROUP LABEL>
inactive

$$$$
>  <COMPOUND>
CCCCCCCCCCCCCCCC(=O)OCC

>  <GROUP LABEL>
inactive

$$$$
>  <COMPOUND>
CCCCCC

>  <GROUP LABEL>
inactive

$$$$
>  <COMPOUND>
CC1=CC[C@@]23C[C@@H]1C(C)(C)[C@@H]2CC[C@H]3C

>  <GROUP LABEL>
inactive

$$$$
>  <COMPOUND>
CCN(CC)CCNC(=O)c1cc(Cl)c(N)cc1OC

>  <GROUP LABEL>
inactive

$$$$
>  <COMPOUND>
C[C@H](CS)C(=O)N1CCC[C@H]1C(=O)O

>  <GROUP LABEL>
inactive

$$$$
>  <COMPOUND>
CC(=O)NCCO

>  <GROUP LABEL>
inactive

$$$$
>  <COMPOUND>
CC(=O)C(=O)CC(C)C

>  <GROUP LABEL>
inactive

$$$$
>  <COMPOUND>
CCCCCc1ccco1

>  <GROUP LABEL>
inactive

$$$$
>  <COMPOUND>
CC(C)Cc1ccc(CC(=O)O)cc1

>  <GROUP LABEL>
inactive

$$$$
>  <COMPOUND>
FC(F)(F)C(F)(F)C(F)(F)C(F)(F)CCI

>  <GROUP LABEL>
inactive

$$$$
>  <COMPOUND>
CC(CCc1ccc(O)cc1)NCCc1ccc(O)c(O)c1 (stereo not drawn)

>  <GROUP LABEL>
inactive

$$$$
>  <COMPOUND>
Nc1ccc(S(=O)(=O)NCc2ccccc2)cc1

>  <GROUP LABEL>
inactive

$$$$
>  <COMPOUND>
CC(C)OC(=O)c1ccccc1C(=O)OC(C)C

>  <GROUP LABEL>
inactive

$$$$
>  <COMPOUND>
CC(=O)OCC(=O)[C@@]1(OC(C)=O)[C@@H](C)C[C@H]2[C@@H]3C[C@H](F)C4=CC(=O)C=C[C@]4(C)[C@@]3(F)[C@@H](O)C[C@@]21C

>  <GROUP LABEL>
inactive

$$$$
>  <COMPOUND>
CCCCCCOC(=O)CCCCC

>  <GROUP LABEL>
inactive

$$$$
>  <COMPOUND>
CO[C@@H]1[C@@H](OC)[C@H](C)[C@@](O)(CC(=O)O)O[C@H]1[C@H](C)[C@H]1O[C@@]2(CC[C@@](C)([C@H]3CC[C@@](C)([C@@H]4O[C@@H]([C@H]5O[C@](C)(O)[C@H](C)C[C@@H]5C)C[C@@H]4OC4C[C@H](OC)[C@@H](OC)[C@H](C)O4)O3)O2)C[C@H](O)[C@H]1C (stereo partly drawn)

>  <GROUP LABEL>
active

$$$$
>  <COMPOUND>
CCCCCCCCCCCSCC(=O)O

>  <GROUP LABEL>
inactive

$$$$
>  <COMPOUND>
CCSC(=O)N(CC)CC

>  <GROUP LABEL>
inactive

$$$$
>  <COMPOUND>
CCCCCCC(CO)CCCC (stereo not drawn)

>  <GROUP LABEL>
inactive

$$$$
>  <COMPOUND>
Oc1cccc2[nH]ccc12

>  <GROUP LABEL>
inactive

$$$$
>  <COMPOUND>
CC(C)(C)C1(CCc2ccc(Cl)cc2)CO1 (stereo not drawn)

>  <GROUP LABEL>
inactive

$$$$
>  <COMPOUND>
Cc1cc(CCCOc2c(C)cc(-c3noc(C(F)(F)F)n3)cc2C)on1

>  <GROUP LABEL>
inactive

$$$$
>  <COMPOUND>
CC(=O)C(C)=O

>  <GROUP LABEL>
inactive

$$$$
>  <COMPOUND>
COC(OC)OC

>  <GROUP LABEL>
inactive

$$$$
>  <COMPOUND>
C[C@@H]1[C@H](O)[C@@H](C)/C=C/C=C\C=C\C=C\C=C\C=C\C=C\[C@H](O[C@@H]2O[C@H](C)[C@@H](O)[C@H](N)[C@@H]2O)C[C@@H]2O[C@](O)(C[C@@H](O)C[C@@H](O)[C@H](O)CC[C@@H](O)C[C@@H](O)CC(=O)O[C@H]1C)C[C@H](O)[C@H]2C(=O)O (stereo in doubt)

>  <GROUP LABEL>
active

$$$$
>  <COMPOUND>
C=Cc1ccc(OC(C)=O)cc1

>  <GROUP LABEL>
inactive

$$$$
>  <COMPOUND>
CC(C)(O)c1coc(S(=O)(=O)NC(=O)Nc2c3c(cc4c2CCC4)CCC3)c1

>  <GROUP LABEL>
inactive

$$$$
